meta.source: PubChem BioAssay (NCI)

# Test system: SN12C renal
# assayProcedure: NCI-60 one-dose screen, 48 h
# testParameters: 10 µM unless noted
Compounds without any hit were thinned out: in the full panel of roughly 83,000, 20% have a hit. Activity calls are given as the source filed them. How the source made its calls: active means growth percent below 10; inactive means the rest.
Possible outcomes: t (active), f (inactive)

- compound: "Nc1c(C(=O)Nc2cccc3ccccc23)sc2nc3c(cc12)CCCCCC3"
  assignedClass: "f"
- compound: "COc1ccc(/C=C/C(=O)c2ccc(NC(=O)CSc3nnc(-c4ccc(OC)c(OC)c4)n3-c3ccccc3)cc2)cc1"
  assignedClass: "f"
- compound: "C=C1C(=O)O[C@H]2[C@H]1CC/C(COC(=O)CCCCCCCC(=O)OC/C1=C/CC[C@@]3(C)O[C@H]3[C@H]3OC(=O)C(=C)[C@@H]3CC1)=C\\CC[C@@]1(C)O[C@@H]21"
  assignedClass: "t"
- compound: "COC(=O)/C=C1\\SC(=Nc2cccc(Cl)c2)N(CCc2c[nH]c3ccccc23)C1=O"
  assignedClass: "f"
- compound: "O=C(CCCC(=O)Nc1ccc(-n2nnc3cc(Cl)c(Cl)cc32)cc1)Nc1ccc(-n2nnc3cc(Cl)c(Cl)cc32)cc1"
  assignedClass: "f"
- compound: "CCC[S@@](=O)c1ccc2nc(NC(=O)OC)[nH]c2c1"
  assignedClass: "f"
- compound: "CC1CCCN(CCCCCOc2ccc3oc4ccccc4c(=O)c3c2)C1 (centres undefined)"
  assignedClass: "f"
- compound: "Cc1cc(O)cc(O)c1N=NC1=NCCS1"
  assignedClass: "f"
- compound: "NS(=O)(=O)c1ccc(-n2ncc(NC(=O)Nc3ccc(S(=O)(=O)Nc4nccs4)cc3)c2-c2ccccc2)cc1"
  assignedClass: "f"
- compound: "Cc1[nH]c2ncnc(Oc3ccc(NC(=O)Nc4ccc(Cl)c(C(F)(F)F)c4)cc3)c2c1C"
  assignedClass: "f"
- compound: "CC(C)Cc1cc(CNC(=O)C2[C@H]3CN(C(=O)c4ccccc4)C[C@@H]23)nn1-c1ccccc1 (some centres undefined)"
  assignedClass: "f"
- compound: "COc1cc(C(=O)N2CCN(c3ccccc3OC)CC2)c(NC(=O)c2cnccn2)cc1OCc1ccccc1"
  assignedClass: "f"
- compound: "Cc1ccc(C2=N[C@H]3CCC[C@@H]3N(c3ccccc3)C(C(Cl)Cl)=N2)cc1"
  assignedClass: "f"
- compound: "O=C(NCc1ccccc1)c1ccc2c(c1)NC(=O)[C@@H]1CCCN21"
  assignedClass: "f"
- compound: "COc1ccc(-n2cc(-c3ccc(Cl)c(Cl)c3)[nH]c2=O)cc1OC"
  assignedClass: "f"
- compound: "COc1ccc(C2=NN(c3ccc(S(N)(=O)=O)cc3)C(c3ccc(Cl)cc3)C2)c(O)c1 (centres undefined)"
  assignedClass: "f"
- compound: "Nc1cc(N)nc(SCC(=O)O)n1"
  assignedClass: "f"
- compound: "C=C1C(=O)O[C@H]2[C@H]1CC/C(COC(=O)NCc1nc3ccccc3[nH]1)=C\\CC[C@@]1(C)O[C@@H]21"
  assignedClass: "f"
- compound: "O=C(N/N=C/C[C@@H]1[C@@H](/C=C/[C@@H](O)COc2cccc(Cl)c2)[C@H](O)C[C@@H]1O)c1ccncc1"
  assignedClass: "f"
